measurement_target: Fuc(a1-2)Gal6S(b1-3)GlcNAc
protocol_notes: glycan array binding signal (z-score within array); higher = stronger binding
assay_setup: glycan notation: IUPAC condensed, linker removed
About 410 targets per protein were measured; listed, in parts, are those with the strongest signals and a random draw of the rest.
# glycan array binding signal (z-score) >= 0.04 gives YES, anything below gives NO

Solved entries:
Can Epa1to9 (Candida glabrata) (protein) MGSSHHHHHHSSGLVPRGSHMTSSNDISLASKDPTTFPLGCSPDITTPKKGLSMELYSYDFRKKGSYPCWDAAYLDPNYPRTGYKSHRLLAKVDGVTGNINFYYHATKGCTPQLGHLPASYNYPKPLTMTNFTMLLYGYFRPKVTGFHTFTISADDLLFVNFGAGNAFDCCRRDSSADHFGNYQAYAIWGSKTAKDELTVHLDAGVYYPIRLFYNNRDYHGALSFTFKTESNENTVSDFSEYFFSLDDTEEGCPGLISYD be said to have glycan array binding signal (z-score) at or above 0.04?
NO

Reported glycan array binding signal (z-score) reaches at least 0.04 for LlpA (Burkholderia cenocepacia) (protein) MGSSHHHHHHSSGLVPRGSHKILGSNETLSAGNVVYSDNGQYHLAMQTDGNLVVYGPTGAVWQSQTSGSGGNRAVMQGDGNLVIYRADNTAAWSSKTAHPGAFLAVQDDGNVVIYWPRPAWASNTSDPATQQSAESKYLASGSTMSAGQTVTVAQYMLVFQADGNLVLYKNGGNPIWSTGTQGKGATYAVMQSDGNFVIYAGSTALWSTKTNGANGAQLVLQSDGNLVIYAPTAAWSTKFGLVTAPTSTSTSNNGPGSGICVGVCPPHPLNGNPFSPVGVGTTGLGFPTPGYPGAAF ?
YES

hey, is glycan array binding signal (z-score) for this one >= 0.04? CBP21 (Serratia marcescens), O83009 (protein) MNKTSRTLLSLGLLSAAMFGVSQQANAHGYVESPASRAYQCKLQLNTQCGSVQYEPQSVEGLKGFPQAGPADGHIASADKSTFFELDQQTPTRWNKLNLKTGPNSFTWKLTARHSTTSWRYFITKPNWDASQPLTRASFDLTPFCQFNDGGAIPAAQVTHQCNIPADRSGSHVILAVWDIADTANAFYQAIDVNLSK
NO

Tell me whether glycan array binding signal (z-score) is at least 0.04 here: Als3-41 (Candida albicans) (protein) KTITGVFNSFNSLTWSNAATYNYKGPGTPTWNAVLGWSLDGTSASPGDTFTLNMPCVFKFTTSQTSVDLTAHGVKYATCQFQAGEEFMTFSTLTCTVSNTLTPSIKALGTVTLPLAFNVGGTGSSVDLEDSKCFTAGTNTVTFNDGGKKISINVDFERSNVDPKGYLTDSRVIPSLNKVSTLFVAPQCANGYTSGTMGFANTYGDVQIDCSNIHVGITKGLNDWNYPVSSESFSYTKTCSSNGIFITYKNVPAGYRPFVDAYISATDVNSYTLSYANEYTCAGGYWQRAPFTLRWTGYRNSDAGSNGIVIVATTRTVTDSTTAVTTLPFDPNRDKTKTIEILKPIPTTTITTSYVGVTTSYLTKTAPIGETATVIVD
NO

---
I'd appreciate it if you could say whether FimA-N2 (Actinomyces oris) (protein) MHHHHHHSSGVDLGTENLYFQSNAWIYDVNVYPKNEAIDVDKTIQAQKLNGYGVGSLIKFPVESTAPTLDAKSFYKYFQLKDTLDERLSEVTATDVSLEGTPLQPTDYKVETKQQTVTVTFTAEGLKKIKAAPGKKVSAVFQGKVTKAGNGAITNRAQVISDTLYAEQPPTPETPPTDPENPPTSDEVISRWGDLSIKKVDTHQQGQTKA has glycan array binding signal (z-score) at least equal to 0.04.
YES

All values here come from the supplement of paper PMC8728848.
